Parameter: z-score. Scope: all listed entries.
target: NADPH oxidase 2 (Homo sapiens) (UniProt P04839); assay: NOX2-dependent H2O2 signal modulators, primary screen, NOX inhibitor project, cell-based, HEK293-NOX2, PMA-stimulated, Amplex Red fluorescence (AID 1159); conditions: 45 min, higher = more signal, called active from +8 up or from −8 down; further: test concentration not given here
Sequence (P04839 whole entry, looked up): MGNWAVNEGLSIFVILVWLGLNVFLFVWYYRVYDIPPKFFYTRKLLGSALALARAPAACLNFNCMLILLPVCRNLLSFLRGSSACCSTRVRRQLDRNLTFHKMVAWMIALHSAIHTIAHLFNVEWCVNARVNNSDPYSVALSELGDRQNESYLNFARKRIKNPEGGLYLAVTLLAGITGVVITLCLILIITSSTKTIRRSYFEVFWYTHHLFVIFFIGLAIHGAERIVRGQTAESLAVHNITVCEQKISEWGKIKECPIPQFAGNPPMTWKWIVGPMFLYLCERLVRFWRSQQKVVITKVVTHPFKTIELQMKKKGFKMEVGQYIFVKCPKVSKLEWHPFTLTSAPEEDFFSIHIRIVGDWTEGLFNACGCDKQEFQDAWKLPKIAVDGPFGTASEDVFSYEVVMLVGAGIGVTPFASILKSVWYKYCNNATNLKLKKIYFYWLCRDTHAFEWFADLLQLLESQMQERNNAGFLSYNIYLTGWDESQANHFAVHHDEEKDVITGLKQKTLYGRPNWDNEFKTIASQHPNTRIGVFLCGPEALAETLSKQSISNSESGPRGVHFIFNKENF
measured-metric: z-score

C[C@]1(C(=O)NC2CC2)c2ccccc2C(=O)N(Cc2ccc(OC(F)(F)F)cc2)[C@H]1c1ccc(CO)cc1
0.264
C=C(COC)/C(=C/C[C@@H](OC(=O)c1ccncc1)c1ccc(CO)o1)c1cnc2ccccc2c1
-0.627
CCOc1cc(C(O)C2C=CC3C(=O)N(C)C(=O)C3N2N2CCCCC2)ccc1O (stereo not drawn)
-1.96
CC(C)(C)N1CC=CC23O[C@@H]4C=CCOC(=O)[C@@H]4[C@H]2C(=O)N(CCCO)[C@@H]3C1=O (stereo partly drawn)
-0.693
C[C@]1(C(=O)NCCN2CCOCC2)c2ccccc2C(=O)N(Cc2ccc(OC(F)(F)F)cc2)[C@H]1c1ccc(CO)cc1
0.752
CCOC(=O)C1=CC[C@@H](c2ccccc2)N(S(=O)(=O)c2ccc(C)cc2)C1
-0.0336
COc1ccc([Si](C)(C)[C@H]2[C@H](CCn3cc([C@H](O)c4ccccc4)nn3)O[C@@]3(C(=O)N(Cc4ccc(N5CCOC5=O)cc4)c4ccccc43)[C@@H]2C)cc1
0.308
Cc1ccc(F)cc1S(=O)(=O)N[C@@H]1CCN(Cc2ccc(Oc3ccccc3)cc2)C1
-0.615

###

assay: S. cerevisiae growth modulation with rapamycin, primary screen, strain BY4716, OD600, 96 h (AID 1091); conditions: higher = more signal, called active from +8 up or from −8 down; further: test concentration not given here
measured-metric: z-score

CN(C)CCCCNC(=O)[C@H]1C[C@H]2C(=O)N[C@@H](CCCCN(C)C)C(=O)N2[C@H]1c1cccc(OCCO)c1
-0.378
COC(=O)[C@@]1(Cc2ccccc2)[C@H]2c3cc(C(=O)N4CCCC4)n(Cc4ccsc4Br)c3C[C@H]2CN1C(=O)c1ccccc1
1.35
C[C@]1(C(=O)NC2CC2)c2ccccc2C(=O)N(Cc2ccc(OC(F)(F)F)cc2)[C@H]1c1ccc(CO)cc1
-0.439
COc1cc2c(cc1OC)CN(C(=O)[C@H]1[C@@H]3C(=O)O[C@@H](c4ccccc4)[C@@H](c4ccccc4)N3[C@@H](c3ccc(OCCO)cc3)[C@]13C(=O)Nc1ccc(C#CCCO)cc13)CC2
5.29
COc1ccc(C#Cc2ccc3c(c2)[C@]2(C(=O)N3)[C@H](C(=O)N3CCc4cc(OC)c(OC)cc4C3)[C@H]3C(=O)O[C@H](c4ccccc4)[C@H](c4ccccc4)N3[C@@H]2c2ccc(O)cc2)cc1
1.91
CCOc1cc(C(O)C2C=CC3C(=O)N(C4CCCCC4)C(=O)C3N2Nc2ccc(OC)cc2)ccc1O (stereo not drawn)
-0.129
CCOc1cc(C(O)C2C=CC3C(=O)N(C)C(=O)C3N2N2CCCCC2)ccc1O (stereo not drawn)
1.63
COc1cc(CO)cc(I)c1O[C@H]1C=C(C(=O)NCCO)C[C@@H](N(CC2CCCCC2)C(=O)c2ccc(C(F)(F)F)cc2)[C@@H]1O
-0.0789

###

assay: small-molecule binders of probe aNOTCH2, primary screen, biochemical, small-molecule microarray, 635/667 nm fluorescence (AID 1121); conditions: higher = more signal;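 further: score merges feature fluorescence read at 667 nm with its signal to noise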
Here the recorded composite z-score is given for each entry.
measured-metric: composite z-score

CC(C)(C)N1CC=CC23O[C@@H]4C=CCOC(=O)[C@@H]4[C@H]2C(=O)N(CCCO)[C@@H]3C1=O (stereo partly drawn)
-0.179
C[C@]1(C(=O)NC2CC2)c2ccccc2C(=O)N(Cc2ccc(OC(F)(F)F)cc2)[C@H]1c1ccc(CO)cc1
0.0049
COCCOC(=O)N1C(=O)[C@@]2(c3cc(C#CCC(C(=O)OC)C(=O)OC)ccc31)[C@H](c1ccc(OCCO)cc1)N1[C@H](c3ccccc3)[C@H](c3ccccc3)OC(=O)[C@H]1[C@@H]2C(=O)N1CCN(c2ncccn2)CC1
-0.14
C=CCC(OC(C)=O)[C@@H]1[C@@H](N(Cc2ccc(-c3ccccc3)cc2)C(=O)c2cccc3ccccc23)c2cc(OCCCO)ccc2N1C(=O)Cc1ccc2ccccc2c1 (stereo partly drawn)
-0.0891
CC1CC/C=C\[C@H]2OC34C=CCN(c5ccc6ccccc6c5)C(=O)[C@H]3N(C(CO)C(C)C)C(=O)[C@@H]4C2C(=O)O1 (stereo partly drawn)
-0.125
[N-]=[N+]=NCc1ccccc1C[C@@]1(C(=O)N2CCCCC2)N=C(c2ccc(OCCCO)cc2)O[C@@H]1c1ccccc1N=[N+]=[N-]
-0.13
COCCCNC(=O)[C@]1(Cc2ccccc2CN=[N+]=[N-])N=C(c2ccc(OCCCO)cc2)O[C@@H]1c1ccccc1
-0.0633
CC=CC(O)C1C=CC2C(=O)N(c3ccccc3)C(=O)C2N1Nc1ccccc1 (stereo not drawn)
0.121
CCCCC(CC)C(O)C1C=CC2C(=O)N(c3ccccc3)C(=O)C2N1Nc1ccc([N+](=O)[O-])cc1 (stereo not drawn)
-0.161
CCOC(=O)C[C@H]1[C@H](OC(=O)Cc2ccc3c(c2)OCO3)[C@@H](NC(=O)C2CCCCC2)c2cc(OCCCO)ccc2N1C(=O)c1ccc2ccccc2n1
0.358
C[C@H]1ON(c2ccc(C(=O)OC(C)(C)C)cc2)[C@@H](c2ccc(O)cc2)[C@@H]1C(=O)N1C(=O)OC[C@@H]1c1ccccc1
-0.126
C=C(/C=C/CNS(=O)(=O)c1ccc(C)cc1)[C@H](O)[C@H]1CCCN1S(=O)(=O)c1ccccc1[N+](=O)[O-]
-0.138
CN(C)CCCCNC(=O)[C@H]1C[C@H]2C(=O)N3CCC[C@H]3C(=O)N2[C@H]1c1ccc(O)cc1
-0.5
CC(C)CCC[C@@H](C)[C@H]1CC[C@@]2(C)C3=C(CC[C@]12C)[C@@]1(C)CC[C@H](OC(=O)c2ccc(Br)cc2)C(C)(C)C1CC3 (stereo partly drawn)
-0.117
C=C(CCCC)/C(=C/C[C@@H](OC(=O)c1ccncc1)c1cccc(OCCO)c1)c1cnc2ccccc2c1
-0.0495
CC=CC(O)C1C=CC2C(=O)N(C)C(=O)C2N1Nc1ccc([N+](=O)[O-])cc1[N+](=O)[O-] (stereo not drawn)
-0.0351
Cc1ccc(S[C@]2(C(=O)NCc3ccccc3)CC(=O)N(C(C)C)[C@@H]2c2ccc(CO)cc2I)cc1
-0.0268
COc1ccc([Si](C)(C)[C@H]2[C@H](CCn3cc([C@H](O)c4ccccc4)nn3)O[C@@]3(C(=O)N(Cc4ccc(N5CCC5=O)cc4)c4ccccc43)[C@@H]2C)cc1
-0.167
Cc1c(NC(=O)/C(C#N)=C/C=C/c2ccc(N(C)C)cc2)c(=O)n(-c2ccccc2)n1C
0.292
CC(C)(C)OC(=O)CC[C@@]1(C(=O)O)N=C(c2ccc(OCCCO)cc2)O[C@@H]1c1ccccc1
-0.0037
Cc1ccc(S[C@]2(C(=O)NC(C)C)CC(=O)N(C3Cc4ccccc4C3)[C@@H]2c2ccc(CO)cc2I)cc1
-0.359
COCCOC(=O)N1C(=O)[C@@]2(c3ccccc31)[C@H](c1ccc(OCCO)cc1)N1[C@H](c3ccccc3)[C@H](c3ccccc3)OC(=O)[C@H]1[C@@H]2C(=O)Nc1nc2ccccc2s1
-0.0089
COCCCNC(=O)[C@@]1(Sc2ccc(C)cc2)CC(=O)N(C2Cc3ccccc3C2)[C@@H]1c1ccc(CO)cc1I
-0.102
Cc1c(NC(=O)/C(C#N)=C/C=C/c2ccccc2[N+](=O)[O-])c(=O)n(-c2ccccc2)n1C
-0.0234
O=C1OCC=C[C@H]2OC34C=CCN(Cn5nnc6ccccc65)C(=O)[C@H]3N(CCCCCCO)C(=O)[C@@H]4[C@@H]12 (stereo partly drawn)
-0.126
CCOC(=O)C[C@H]1[C@H](OC(=O)c2ccc(C(=O)c3ccccc3)cc2)[C@@H](NC(=O)c2ccc3ccccc3c2)c2cc(OCCCO)ccc2N1C(=O)c1ccccc1
0.127
CC(=O)N1Cc2ccccc2C[C@]2(N=C(c3ccc(OCCCO)cc3)O[C@@H]2c2ccccc2)C1=O
-0.0424
Cc1ccc(C(C)CC(O)C2C=CC3C(=O)N(c4ccccc4)C(=O)C3N2Nc2ccc(C(C)C)cc2)o1 (stereo not drawn)
0.299

All values here come from PubChem BioAssay.
